target.of.assay: CD63 on cells (human) (UniProt P08962)
Sequence (P08962 2-238): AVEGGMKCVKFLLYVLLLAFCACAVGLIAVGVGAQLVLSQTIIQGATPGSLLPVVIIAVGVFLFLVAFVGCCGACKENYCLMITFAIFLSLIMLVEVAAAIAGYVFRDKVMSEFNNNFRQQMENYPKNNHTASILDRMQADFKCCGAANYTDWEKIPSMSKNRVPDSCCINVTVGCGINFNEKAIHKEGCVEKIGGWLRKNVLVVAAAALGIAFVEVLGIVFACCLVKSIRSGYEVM
assay.info: cell-based or functional assay
parameter.measured: IC50 of cytotoxicity, Colo205 cells (CellTiter-GLO, 4 days) (µg/mL)
Give the quantity in µg/mL, number only.

Query block: Look up IC50 of cytotoxicity, Colo205 cells (CellTiter-GLO, 4 days) for this binder: bsCD63xb12-Duo3 with CD63 variant Y46 (bispecific antibody, part only; not given: b12 control arm VH and VL, V domains shown, part only) VH: EVQLQQSGPELVKPGASVKMSCKASGHTFTSYVMHWVRQTPGQGLEWIGYITPYNDGTKYNEKFKGKATLTSDKSSSTAYMELSSLTSEDSAVYYCVGGDNYYYAMDYWGQGTSVTVSAA VL: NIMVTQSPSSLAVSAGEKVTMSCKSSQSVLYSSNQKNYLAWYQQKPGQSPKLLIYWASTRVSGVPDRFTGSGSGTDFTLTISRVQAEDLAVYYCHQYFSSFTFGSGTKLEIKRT
Result block: 5.64
